# tested_system: T1, recombinant human soluble gpNMB (recombinant human gpNMB-FLAG-His) (human, UniProt Q14956 23-498)
# T1 sequence: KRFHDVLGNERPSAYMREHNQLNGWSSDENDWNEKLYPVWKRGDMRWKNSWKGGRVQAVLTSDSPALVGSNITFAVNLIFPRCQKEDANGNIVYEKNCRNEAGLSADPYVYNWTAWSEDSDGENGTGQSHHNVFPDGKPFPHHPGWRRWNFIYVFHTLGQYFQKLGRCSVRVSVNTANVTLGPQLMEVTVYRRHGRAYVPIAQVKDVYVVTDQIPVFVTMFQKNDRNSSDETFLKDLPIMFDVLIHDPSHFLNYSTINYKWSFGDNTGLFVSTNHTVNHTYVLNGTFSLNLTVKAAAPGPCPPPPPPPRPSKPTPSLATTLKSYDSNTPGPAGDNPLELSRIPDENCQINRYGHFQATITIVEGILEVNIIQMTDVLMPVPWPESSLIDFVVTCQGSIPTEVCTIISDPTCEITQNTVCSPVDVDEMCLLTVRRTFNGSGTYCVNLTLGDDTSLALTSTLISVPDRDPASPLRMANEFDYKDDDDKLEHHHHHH
# test_name: antigen ELISA
Measured EC50 values are reported for all entries that follow.
Expressed in nM, but write only the number.

In: What value of measured EC50 is listed for hGPN18-2_H2L3 VL S26A (antibody, V domains shown) VH: QVQLVQSGPGLVQPTQTLTLTCSFSGFSLSTSVMGVGWIRQPSGKGLEWLADIWWDDDKDYNPSLKSRLTISKDTSKNQVVLTMTNMDTVDTATYYCARTYYSNYEYYGMDYWGQGTLVTVSS VL: DIVMTQSPDSLAVSLGERATINCRSAQTIILSNGNTYLEWYQQKPGQPPKLLIYKVSNRFSGVPDRFSGSGSGTDFTLTISSLQAEDVAVYYCFQGSHVPFTFGSGTKLEIKR ?
Out: 3.14

In: Return reported EC50; argument: hGPN18-2_H2L3 VL L31A (antibody, V domains shown) VH: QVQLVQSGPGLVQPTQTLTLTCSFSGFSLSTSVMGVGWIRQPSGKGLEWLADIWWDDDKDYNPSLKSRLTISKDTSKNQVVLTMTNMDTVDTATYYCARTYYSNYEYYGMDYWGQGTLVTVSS VL: DIVMTQSPDSLAVSLGERATINCRSSQTIIASNGNTYLEWYQQKPGQPPKLLIYKVSNRFSGVPDRFSGSGSGTDFTLTISSLQAEDVAVYYCFQGSHVPFTFGSGTKLEIKR
Out: 20.7

In: Dear colleague, I am looking for the recorded EC50 of the following binder: hGPN18-2_H2L3 VL T28A (antibody, V domains shown) VH: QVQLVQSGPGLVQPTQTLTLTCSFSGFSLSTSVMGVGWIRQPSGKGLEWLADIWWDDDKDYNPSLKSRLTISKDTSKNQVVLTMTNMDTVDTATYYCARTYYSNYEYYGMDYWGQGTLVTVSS VL: DIVMTQSPDSLAVSLGERATINCRSSQAIILSNGNTYLEWYQQKPGQPPKLLIYKVSNRFSGVPDRFSGSGSGTDFTLTISSLQAEDVAVYYCFQGSHVPFTFGSGTKLEIKR
Out: 2.91
